- protocol-details: A qHTS for Small Molecule Inhibitors of Shiga Toxin
- experimental-context: Vero cells, Shiga toxin protein synthesis inhibition reporter; at 38.7 µM
Hit rate of the full screen: of about 290,000 compounds, about 27,000 (9.3%) were called active. Cut-off read from the data, not from the text of the source: active = inhibition mostly above about 28% (no sharp cut-off); inactive = mostly below about 43%. Shown is part of a subset that was picked to be rich in actives.
Labels: active, inactive

- NS(=O)(=O)c1ccccc1NC(=O)c1c(O)c2ccccc2[nH]c1=O: active
- CC1(c2ccc3ccccc3c2)NC(=O)N(CC(N)=O)C1=O (centres undefined): inactive
- CC(NC(=O)CNC(=O)Cc1cccc2ccccc12)c1ccc(S(N)(=O)=O)cc1 (centres undefined): inactive
- CC(=O)N1CCc2c(sc(NC(=O)CCS(=O)(=O)c3ccccc3)c2C#N)C1: inactive
- CN1c2ccc([N+](=O)[O-])cc2C(C)(C)C12C=Cc1cc(C(=O)O)ccc1O2 (centres undefined): inactive
- O=C(Nc1cccc(-n2cnnn2)c1)c1cccnc1: inactive
- CCc1ccc(NC(=O)CN2C(=O)CSC2=O)cc1: active
- O=Cc1ccc(Oc2cccc(C(F)(F)F)c2)nc1: inactive
- CC1CCN(C(=O)CCc2nnc3ccc(NCc4ccco4)nn23)CC1: inactive
